- experiment_summary: log P by HPLC on reversed-phase column (EEC directive 79/831 Annex V.A8)
- Format: physicochemical
- details: HPLC on reversed-phase column
Outcome: TRUE for log p a) of at least 3; FALSE for anything lower.

Cc1ccc[n+]2c(C(=O)Nc3ccccc3)c([O-])n(Cc3cnc(Cl)s3)c12 ... TRUE
COc1cccc(NC(=O)c2c([O-])n(Cc3ccc(Cl)nc3)c3cccc[n+]23)c1 ... FALSE
O=C(CCl)c1c([O-])n(Cc2cnc(Cl)s2)c2cccc[n+]12 ... FALSE

Proceed to the following item.
Request: Quick check, log p a) >= 3? CNC(=O)c1c([O-])n(C(C)c2ccc(Cl)nc2)c2cccc[n+]12 (centres unmarked)
Result: FALSE

* * *

- experiment_summary: log P by HPLC on reversed-phase column (EEC directive 79/831 Annex V.A8)
- Assay type: physicochemical
- details: HPLC on reversed-phase column
Threshold 2. log p a) below it: satisfied. log p a) at it or above: not satisfied.

Some solved cases for reference:
COC(=O)c1c([O-])n(Cc2ccc(F)nc2)c2c(C)ccc[n+]12 ... satisfied
N#Cc1cccc(F)c1NC(=O)c1c([O-])n(Cc2cnc(Cl)s2)c2cccc[n+]12 ... not satisfied
O=C(CCl)c1c([O-])n(Cc2ccc(F)nc2)c2cccc[n+]12 ... satisfied
COc1ccc(NC(=O)c2c([O-])n(Cc3cnc(Cl)s3)c3c(C)ccc[n+]23)cc1 ... not satisfied
Cc1ccc[n+]2c(C(=O)NC3CC3)c([O-])n(Cc3ccc(F)nc3)c12 ... satisfied
Cc1ccc[n+]2c(C(=O)NCC3CCCC3)c([O-])n(Cc3ccc(Cl)nc3)c12 ... not satisfied
O=C(Nc1c(F)cccc1Cl)c1c([O-])n(Cc2ccc(Cl)nc2)c2cccc[n+]12 ... not satisfied
COC(=O)c1c([O-])n(C(C)c2ccc(Cl)nc2)c2cccc[n+]12 (stereo not shown) ... satisfied
O=C(Nc1ccc(F)cc1)c1c([O-])n(Cc2cnc(Cl)s2)c2cccc[n+]12 ... not satisfied
CCCNC(=O)c1c([O-])n(C(C)c2ccc(Cl)nc2)c2c(C)ccc[n+]12 (racemic) ... not satisfied

Request: log p a) under 2? Item: `COc1ccc(NC(=O)c2c([O-])n(Cc3cnc(Cl)s3)c3cccc[n+]23)cc1`
Result: not satisfied

Request: In plain terms, does `O=C(Nc1c(Cl)ncnc1Cl)c1c([O-])n(Cc2cnc(Cl)s2)c2cccc[n+]12` come in under 2 for log p a)?
Result: not satisfied

Request: Is it true that log p a) reported for `O=C(NC1CC1)c1c([O-])n(Cc2cnc(Cl)c(Cl)c2)c2cccc[n+]12` is less than 2?
Result: not satisfied

Request: # check: log p a) < 2 for Cc1ccc[n+]2c(C(=O)NC3CC3)c([O-])n(C(C)c3ccc(Cl)nc3)c12 (racemic) [Example I-1-257]
Result: satisfied

Request: In plain terms, does `O=C(Nc1cnccc1Cl)c1c([O-])n(Cc2cnc(Cl)s2)c2cccc[n+]12` come in under 2 for log p a)?
Result: satisfied

* * *

- experiment_summary: log P by HPLC on reversed-phase column (EEC directive 79/831 Annex V.A8)
- Type: physicochemical
- details: HPLC on reversed-phase column (footnote a)
Cut-off 1 on log p, inclusive. At or above means T; below means F.

Reference set, count: 4
O=C(CCl)c1c([O-])n(Cc2cncc(Cl)c2)c2cccc[n+]12 ... T
COCC(=O)c1c([O-])n(Cc2cnc(Cl)s2)c2c(C)ccc[n+]12 ... T
CCOCC(=O)c1c([O-])n(Cc2cncnc2)c2cccc[n+]12 ... F
O=C(COCc1ccccc1)c1c([O-])n(Cc2cncnc2)c2cccc[n+]12 ... T

Request: I'd appreciate it if you could say whether `O=C(NC1CC1)c1c([O-])n(Cc2cncnc2)c2cccc[n+]12` has log p at least equal to 1.
Result: F
